The following molecules are shown together with reported pIC50 values.
target: METTL3/14 (Homo sapiens, UniProt Q86U44); assay: METTL3/14 methyltransferase activity assay (HTRF); details: 10 concentrations, 3-fold dilution from 10 µM
Sequence (Q86U44 whole entry): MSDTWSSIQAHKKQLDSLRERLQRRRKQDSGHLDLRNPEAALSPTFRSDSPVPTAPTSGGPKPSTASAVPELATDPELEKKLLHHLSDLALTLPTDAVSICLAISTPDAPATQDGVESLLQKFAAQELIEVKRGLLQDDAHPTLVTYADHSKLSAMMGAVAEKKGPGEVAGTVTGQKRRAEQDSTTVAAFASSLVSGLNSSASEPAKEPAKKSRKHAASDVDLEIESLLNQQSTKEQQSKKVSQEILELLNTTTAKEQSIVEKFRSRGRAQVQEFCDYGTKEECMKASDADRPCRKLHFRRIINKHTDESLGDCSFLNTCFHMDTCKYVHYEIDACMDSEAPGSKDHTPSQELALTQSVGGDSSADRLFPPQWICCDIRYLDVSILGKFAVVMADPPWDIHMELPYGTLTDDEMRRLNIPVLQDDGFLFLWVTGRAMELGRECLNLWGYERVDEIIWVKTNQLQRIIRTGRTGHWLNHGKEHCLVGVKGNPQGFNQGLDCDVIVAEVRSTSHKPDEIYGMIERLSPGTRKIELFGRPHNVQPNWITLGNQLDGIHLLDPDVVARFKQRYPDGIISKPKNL
Sequence (Q9HCE5 whole entry partner): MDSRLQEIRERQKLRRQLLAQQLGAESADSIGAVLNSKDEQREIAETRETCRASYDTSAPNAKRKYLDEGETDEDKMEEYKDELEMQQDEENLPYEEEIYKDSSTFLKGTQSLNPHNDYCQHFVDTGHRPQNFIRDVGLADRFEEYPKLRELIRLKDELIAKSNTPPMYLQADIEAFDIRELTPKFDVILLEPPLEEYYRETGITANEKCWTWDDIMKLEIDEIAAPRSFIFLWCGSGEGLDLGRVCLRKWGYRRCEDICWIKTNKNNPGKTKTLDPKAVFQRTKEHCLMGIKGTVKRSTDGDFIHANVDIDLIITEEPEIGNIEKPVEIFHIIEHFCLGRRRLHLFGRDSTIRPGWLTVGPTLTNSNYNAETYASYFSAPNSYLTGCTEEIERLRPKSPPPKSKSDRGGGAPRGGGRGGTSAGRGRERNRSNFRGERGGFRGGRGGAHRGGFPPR
pIC50: −log10 of the molar value.

Here are 4 molecules together with their reported answers.
O=C(NCc1ccc2cc(CNC[C@H]3CCCO3)[nH]c2c1)c1cc(=O)n2cc3c(cc2n1)OCCO3    7.00 to 8.00
[2H]C([2H])(NCc1cc2ccc(CNC(=O)c3cc(=O)n4cc5c(cc4n3)OCO5)cc2[nH]1)C12CC(CO1)C2    7.00 to 8.00
O=C(NCc1cc2[nH]c(CNCC3CCC3)cc2cc1F)c1cc(=O)n2cc3c(cc2n1)OCCO3    7.00 to 8.00
[2H]C([2H])(NCc1cc2ccc(CNC(=O)c3cc(=O)n4cc5c(cc4n3)OCO5)cc2[nH]1)C1CCC1    > 8.00

The reported value for `[2H]C([2H])(NCc1cc2ccc(CNC(=O)c3cc(=O)n4cc5c(cc4n3)OCCO5)cc2[nH]1)C12CC(CO1)C2` in terms of pIC50 is 7.00 to 8.00

pIC50 measured on `O=C(NCc1ccc2cc(CNCC3CCC3)[nH]c2c1)c1cc2ncccn2n1` = 7.00 to 8.00

Memo: `CN1CCOc2cnn3cc(C(=O)NCc4ccc5cc(CNCC6CCC6)[nH]c5c4)nc1c23` , reported pIC50: 6.00 to 7.00
